Data credit: ChEMBL document CHEMBL1201862

- Tested on: U-251
- test: NCI tumour cell line growth inhibition, 48 h
Active and inactive are the calls of the source. Cut-off read from the data, not from the text of the source: active = GI50 up to about 1.1 µM and inactive = higher.
property-name: GI50

// known answers, use as guide
1. O=C(O)Cc1cc(O)c(CC(=O)O)cc1O ... > 100 µM (inactive)
2. C=CC(C)CCC(C/C=C(\C)CCC=C(C)C)C(=C)CCCC(C)C (stereo not given) ... > 100 µM (inactive)
3. COc1cccc(/C=C(\NC(C)=O)c2nc3cc(Cl)ccc3[nH]2)c1 ... > 100 µM (inactive)
4. CC(=O)O[C@H]1C(=O)[C@@]2(C)[C@H]([C@H](OC(=O)c3ccccc3)[C@]3(O)C[C@H](OC(=O)[C@H](O)[C@@H](NC(=O)OC(C)(C)C)c4ccco4)C(C)=C1C3(C)C)[C@]1(OC(C)=O)CO[C@@H]1C[C@@H]2O ... 0.00661 µM (active)
5. Cc1nc([N+](=O)[O-])cn1-c1nc2ccccn2c1[N+](=O)[O-] ... 53.2 µM (inactive)
6. N#CC1=C(O)NC(O)=C(C#N)C1c1ccc(C2C(C#N)=C(O)NC(O)=C2C#N)cc1 ... > 100 µM (inactive)

Please state, for each entry, its recorded GI50.
1. Cc1ccc(S(=O)(=O)N(/N=C/C=C/c2ccccc2)c2nnc(-c3ccccc3)c(-c3ccccc3)n2)cc1
2. COC(=O)c1c(O)ccc2c1c1c(n2Cc2ccccn2)C(=O)c2ccccc2C1
3. Cc1cn(C2CC(N=[N+]=[N-])C(C(=O)O)O2)c(=O)[nH]c1=O (stereo not given)

Result block:
["32.1 µM (inactive)", "> 100 µM (inactive)", "> 100 µM (inactive)"]

Please state, for each entry, its recorded GI50.
1. CNC(=O)CNC(=O)CCC(=O)N(C)C
2. Oc1ccncc1-c1cnccc1O
3. O=C(O)Cc1cc(Cl)ccc1O
4. CNc1ccc([S+]([O-])Nc2ccccc2)cc1 (stereo not given)

Result block:
> 100 µM (inactive)
> 100 µM (inactive)
> 100 µM (inactive)
36.2 µM (inactive)

Please state, for each entry, its recorded GI50.
1. C#CCN(Cc1ccc2nc(-c3ccccc3)c(N)nc2c1)c1cc(OC)c(OC)c(OC)c1
2. CC(C)CCNC(=O)c1ccc(CNC(=O)/C=C/c2cccc(Oc3ccccc3)c2)cc1
3. O=C1CCC(c2ccccc2)C(O)(C(=O)O)C1 (stereo not given)
4. O=c1c2cccnc2ncn1CCCN1CCCC1
5. O=Nc1c(-c2c(O)[nH]c3ccccc23)[nH]c2ccccc12

Result block:
1. 37 µM (inactive)
2. 28.8 µM (inactive)
3. > 100 µM (inactive)
4. > 100 µM (inactive)
5. 6.97 µM (inactive)

Please state, for each entry, its recorded GI50.
1. CC(=O)O[C@]12CCCCCC1C1(O)C(O)CCC[C@H]12 (stereo not given in full)
2. COc1cc(C2C3=C(CCCC3=O)N(c3ccc(C)cc3)C3=C2C(=O)CCC3)c([N+](=O)[O-])cc1OC

Result block:
["> 100 µM (inactive)", "42 µM (inactive)"]

----------
- Tested on: EKVX
- test: NCI tumour cell line growth inhibition, 48 h
Active and inactive are the calls of the source. Rule as the data show it: active = GI50 up to about 1.1 µM and inactive = higher.
Can you answer with just one of these options? true for active, false for inactive

1) CSc1ccc(/C=C/C(=O)c2nc3ccccc3[nH]2)cc1 ... false

Query block: Short answer needed: outcome of this test for Cc1cc(C)nc(NS(=O)(=O)c2ccc(Nc3c4ccccc4nc4ccc(C(=O)Nc5ccc(S(N)(=O)=O)cc5)cc34)cc2)n1 ?
Result block: false

Query block: Short answer needed: outcome of this test for CNC(=S)N(C1CCCCC1)C1CCCCC1 ?
Result block: false

Query block: Short answer needed: outcome of this test for CC1(C)OC2C(=O)C=C(COCc3ccccc3)C2O1 (centres undefined) ?
Result block: false

Query block: Short answer needed: outcome of this test for CCOC(=O)C12OC(CCC1=O)C(C(=O)OC)=C2C(=O)OC (centres undefined) ?
Result block: false

Query block: Short answer needed: outcome of this test for CC1=NN(C2=NS(=O)(=O)c3ccccc3N2C)C(=O)C1 ?
Result block: false
